test system: SK-N-AS (Neuroblastoma); experiment: Bliss excess, mean over the matrix (fraction); higher = more synergy;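 also: after 72 h of two-drug dosing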
Recorded Bliss excess for the following compounds
When you answer, write just the number.

A selection of reference data follows.
CN(CCO)CC[C@H](CSc1ccccc1)Nc1ccc(S(=O)(=O)NC(=O)c2ccc(N3CCC([C@@H](O)c4ccccc4-c4ccc(Cl)cc4)CC3)cc2)cc1S(=O)(=O)C(F)(F)F [AZD4320] + CC(=O)O[C@H]1C(=O)[C@@]2(C)[C@H]([C@H](OC(=O)c3ccccc3)[C@]3(O)C[C@H](OC(=O)[C@H](O)[C@@H](NC(=O)c4ccccc4)c4ccccc4)C(C)=C1C3(C)C)[C@]1(OC(C)=O)CO[C@@H]1C[C@@H]2O [Paclitaxel] (first compound max 1 µM, 7x7, partner max 3 µM)    0.0584
Cc1c2c(nn1C)CSCc1cc(n(C)n1)CSc1cc(c3ccccc3c1)OCCCc1c(C(=O)O)n(C)c3c-2c(Cl)ccc13 [AZD5991] + CCN(CCO)CCCOc1ccc2c(Nc3cc(CC(=O)Nc4cccc(F)c4)[nH]n3)ncnc2c1 [AZD2811] (first compound max 1 µM, 7x7, partner max 1 µM)    0.0414
Cc1c2c(nn1C)CSCc1cc(n(C)n1)CSc1cc(c3ccccc3c1)OCCCc1c(C(=O)O)n(C)c3c-2c(Cl)ccc13 [AZD5991] + CC1(C)CCC(CN2CCN(c3ccc(C(=O)NS(=O)(=O)c4ccc(NCC5CCOCC5)c([N+](=O)[O-])c4)c(Oc4cnc5[nH]ccc5c4)c3)CC2)=C(c2ccc(Cl)cc2)C1 [Venetoclax] (first compound max 1 µM, 7x7, partner max 1 µM)    0.0857
O=C(c1cc(Cc2n[nH]c(=O)c3ccccc23)ccc1F)N1CCN(C(=O)C2CC2)CC1 [Olaparib] + Cc1c2c(nn1C)CSCc1cc(n(C)n1)CSc1cc(c3ccccc3c1)OCCCc1c(C(=O)O)n(C)c3c-2c(Cl)ccc13 [AZD5991] (first compound max 10 µM, 7x7, partner max 1 µM)    -0.0347
NC1(C(=O)N[C@@H](CCO)c2ccc(Cl)cc2)CCN(c2ncnc3[nH]ccc23)CC1 [Capivasertib] + Cn1cnc2c(F)c(Nc3ccc(Br)cc3Cl)c(C(=O)NOCCO)cc21 [Selumetinib] (first compound max 10 µM, 7x7, partner max 10 µM)    0.0046
NC1(C(=O)N[C@@H](CCO)c2ccc(Cl)cc2)CCN(c2ncnc3[nH]ccc23)CC1 [Capivasertib] + C[C@@H]1COCCN1C2=NC(=NC(=C2)C3(CC3)[S@](=N)(=O)C)C4=C5C=CNC5=NC=C4 [AZD6738] (first compound max 10 µM, 7x7, partner max 10 µM)    -0.0469

Bliss excess lookup needed for CC(=O)c1c(C)c2cnc(Nc3ccc(N4CCNCC4)cn3)nc2n(C2CCCC2)c1=O [Palbociclib] + Cc1c2c(nn1C)CSCc1cc(n(C)n1)CSc1cc(c3ccccc3c1)OCCCc1c(C(=O)O)n(C)c3c-2c(Cl)ccc13 [AZD5991] (first compound max 10 µM, 7x7, partner max 1 µM) , thanks. -0.006

Bliss excess lookup needed for N#Cc1cnc(Nc2cc(NC[C@H]3CNCCO3)c(C(F)(F)F)cn2)cn1 [SRA737] + O=c1[nH]cc(F)c(=O)[nH]1 [5-Fluorouracil] (first compound max 10 µM, 7x7, partner max 20 µM) , thanks. -0.0291

Bliss excess lookup needed for C[C@@H](Oc1cc(-c2cnn(C3CCNCC3)c2)cnc1N)c1c(Cl)ccc(F)c1Cl [Crizotinib] + Cn1cnc2c(F)c(Nc3ccc(Br)cc3Cl)c(C(=O)NOCCO)cc21 [Selumetinib] (first compound max 10 µM, 7x7, partner max 10 µM) , thanks. -0.0118
